Reported values of protein stability index for individual entries
B1: KRT33B (parent)
chain: PAVDLNQVLNETRNQYEALVETNR

- Variants of: B1
- Assay comment: protein stability index of a GFP-peptide fusion (GPS, HEK-293T) (PSI 1-6); higher = more stable;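 also: lentivirally expressed fusions sorted by FACS into six bins by GFP to DsRed ratio, PSI derived from sequencing read proportions per bin multiplied by bin number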
- Recorded conditions: c terminus: a fixed tail appended
Assay endpoint: protein stability index

> print(dat)
    changes           assay.endpoint  numeric.result
 1     R24M  protein stability index            2.16
 2      N6M  protein stability index            1.34
 3     T22I  protein stability index            3.02
 4     A18L  protein stability index            3.59
 5     R24N  protein stability index            4.16
 6     Q15S  protein stability index            3.95
 7      V3I  protein stability index            3.77
 8      V3C  protein stability index            2.81
 9     E21R  protein stability index            4.04
10     N23E  protein stability index            4.51
11     N10F  protein stability index            2.44
12     N23D  protein stability index            5.06
13     Y16F  protein stability index             3.5
14     V20K  protein stability index            4.24
15      A2E  protein stability index            2.26
16     E21P  protein stability index            4.18
17     R24I  protein stability index            2.59
18     N23F  protein stability index            2.58
19     T12C  protein stability index            3.24
20     Y16M  protein stability index            4.39
21     N23I  protein stability index            3.24
22     N14P  protein stability index            4.43
23     T22Q  protein stability index            3.94
24     E17L  protein stability index            3.73
25      N6H  protein stability index            2.97
26      N6R  protein stability index            3.13
27     V20I  protein stability index            4.39
28      D4I  protein stability index            3.41
29     E21F  protein stability index            3.23
30      P1K  protein stability index            3.66
31      V3Y  protein stability index            3.56
32     V20T  protein stability index            4.95
33     A18F  protein stability index            3.48
34     A18K  protein stability index            2.69
35     T22G  protein stability index            4.73
36     A18C  protein stability index            3.83
37     E21D  protein stability index            3.69
38      Q7M  protein stability index            4.24
39     E21C  protein stability index            3.58
40     T12N  protein stability index            4.11
41     Q15A  protein stability index            3.84
42      D4K  protein stability index               4
43      Q7V  protein stability index            3.86
44     V20E  protein stability index            3.52
45     V20G  protein stability index            4.49
46      Q7D  protein stability index            3.73
47     R13F  protein stability index            4.15
48      L5F  protein stability index            3.38
49      V3Q  protein stability index            3.29
50     E17F  protein stability index             2.9
51      A2Q  protein stability index            3.11
52     V20W  protein stability index            3.62
53     E17K  protein stability index            3.48
54     N14Q  protein stability index            2.57
55      D4N  protein stability index            4.46
56      V3P  protein stability index            4.99
57      V8D  protein stability index            4.77
58     R13C  protein stability index            4.38
59     V20F  protein stability index            4.09
60     E21M  protein stability index            3.67
61     E11L  protein stability index            3.81
62      V3N  protein stability index            4.25
63     Q15M  protein stability index             1.6
64     L19Y  protein stability index            4.61
65     E17D  protein stability index            4.23
66      P1G  protein stability index            4.39
67      N6T  protein stability index            3.43
68      L5T  protein stability index            4.48
69     N10K  protein stability index            2.74
70     T22K  protein stability index             3.7
71     L19S  protein stability index            5.03
72     Y16A  protein stability index            5.14
73     Y16I  protein stability index            4.17
74     Y16T  protein stability index            5.15
75     Q15E  protein stability index            4.61
76      P1H  protein stability index            4.02
77      V8L  protein stability index            1.45
78      L5E  protein stability index            4.53
79      D4W  protein stability index            2.64
80     E21K  protein stability index             4.2
81     E11T  protein stability index             4.1
82      V8Q  protein stability index            4.64
83     T22W  protein stability index            3.88
84     A18N  protein stability index            3.89
85     N10T  protein stability index            2.67
86     Y16D  protein stability index            4.98
87     T12D  protein stability index            4.61
88     R24E  protein stability index            4.13
89     T22D  protein stability index             4.8
90      P1A  protein stability index            3.25
91     R24G  protein stability index            4.72
92     V20Q  protein stability index            4.94
93     N23T  protein stability index            4.46
